Measured values drawn from patent US9353107B2 for this set.

Study system: recombinant human ALK enzyme (ALK WT) (Homo sapiens, UniProt Q9UM73)
Construct: purchased Carna Biosciences 08-518
Sequence (Q9UM73 1058-1620 limits assumed): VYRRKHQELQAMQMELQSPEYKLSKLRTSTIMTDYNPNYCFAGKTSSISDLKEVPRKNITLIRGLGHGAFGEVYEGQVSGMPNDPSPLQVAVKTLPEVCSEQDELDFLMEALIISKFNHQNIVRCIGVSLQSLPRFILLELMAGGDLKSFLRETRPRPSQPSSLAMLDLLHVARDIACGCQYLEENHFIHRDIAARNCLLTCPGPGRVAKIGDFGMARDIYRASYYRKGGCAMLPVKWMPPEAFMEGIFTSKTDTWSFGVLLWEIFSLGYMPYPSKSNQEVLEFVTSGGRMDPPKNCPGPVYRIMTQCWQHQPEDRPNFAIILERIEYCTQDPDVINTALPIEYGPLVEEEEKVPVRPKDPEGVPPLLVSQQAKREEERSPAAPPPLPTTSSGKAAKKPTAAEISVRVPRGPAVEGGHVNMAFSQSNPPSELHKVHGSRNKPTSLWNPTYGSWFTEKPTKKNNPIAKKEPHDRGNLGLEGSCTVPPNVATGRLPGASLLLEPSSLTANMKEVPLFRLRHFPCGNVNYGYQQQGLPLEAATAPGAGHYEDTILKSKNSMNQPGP
Assay protocol: ALK WT cell free enzymatic assay (TR-FRET)
Format: biochemical
Cond: compound at 100 nM; 30 min pre-incubation; 1 μM ATP
Counter-ions that a name gives are not always drawn.
Readings of inhibition at 0.1 µM for the listed compounds
Provide only the numeric value, understood in %.

Field: example entries. Status: answers known.
Compound	Study system	Measurement type	Experimental result
Fc1cc(-c2cnc3[nH]cc(-c4cnn(CCc5ccccc5)c4)c3c2)ccc1C1CCNCC1 [Example 167]	recombinant human ALK enzyme (ALK WT) (Homo sapiens, UniProt Q9UM73)	inhibition at 0.1 µM	69
Cc1nn(Cc2cccc(F)c2)c(C)c1-c1c[nH]c2nc(C3CC3)c(-c3ccc(N4CCNCC4)cc3)cc12 [Example 55, hydrochloride]	recombinant human ALK enzyme (ALK WT) (Homo sapiens, UniProt Q9UM73)	inhibition at 0.1 µM	2
NC(=O)CN1CCN(c2ccc(-c3cnc4[nH]cc(-c5cnn(Cc6cc(F)cc(F)c6)c5)c4c3)cn2)CC1 [Example 136]	recombinant human ALK enzyme (ALK WT) (Homo sapiens, UniProt Q9UM73)	inhibition at 0.1 µM	97
COc1ncc(-c2cnc3[nH]cc(-c4cnn(Cc5cccc(F)c5)c4)c3c2)cc1N [Example 65]	recombinant human ALK enzyme (ALK WT) (Homo sapiens, UniProt Q9UM73)	inhibition at 0.1 µM	97
Nc1cc(-c2cnc3[nH]cc(-c4cnn(Cc5cccc(F)c5)c4)c3c2)ccc1N1CCNCC1 [Example 105]	recombinant human ALK enzyme (ALK WT) (Homo sapiens, UniProt Q9UM73)	inhibition at 0.1 µM	98
CC(C)CN1CCN(c2ccc(-c3cnc4[nH]cc(-c5cnn(Cc6cccc(F)c6)c5)c4c3)cn2)CC1 [Example 152]	recombinant human ALK enzyme (ALK WT) (Homo sapiens, UniProt Q9UM73)	inhibition at 0.1 µM	80

Moving on to the next compound.
Specify measured inhibition at 0.1 µM for Cc1nn(Cc2cccc(F)c2)c(C)c1-c1c[nH]c2ncc(-c3cccc(N4CCNCC4)c3)cc12 [Example 38] .
87

---

Listed here: items and their measured inhibition at 0.1 µM.
Study system: recombinant human ALK enzyme (ALK WT) (Homo sapiens, UniProt Q9UM73)
Construct: purchased Carna Biosciences 08-518
Assay protocol: ALK WT cell free enzymatic assay (TR-FRET)
Type: biochemical
Cond: compound at 100 nM; 30 min pre-incubation; 1 μM ATP
Numeric only. Scale: %

Look over these answered cases.
Structure notation	Unit string	Experimental result
c1ccc(CCn2cc(-c3c[nH]c4ncc(-c5cccc(NC6CCNCC6)c5)cc34)cn2)cc1	%	83
N#CCCN1CCN(c2cccc(-c3cnc4[nH]cc(-c5cnn(Cc6cccc(F)c6)c5)c4c3)c2)CC1	%	91
Cc1nn(Cc2cccc(F)c2)c(C)c1-c1c[nH]c2ncc(-c3cccc(OC4CCNCC4)c3)cc12	%	70

Look up and state reported inhibition at 0.1 µM for CS(=O)(=O)Nc1cc(-c2cnc3[nH]cc(-c4cnn(Cc5cc(F)cc(F)c5)c4)c3c2)ccc1F
101

For c1cncc(Cn2cc(-c3c[nH]c4ncc(-c5ccc(C6CCNCC6)cc5)cc34)cn2)c1 , write its inhibition at 0.1 µM.
84

Quote inhibition at 0.1 µM reported for Cc1cccc(Cn2cc(-c3c[nH]c4ncc(-c5ccc(N6CCN(C[C@H](C)O)CC6)cc5)cc34)cn2)c1 please.
86

Kindly indicate its recorded inhibition at 0.1 µM. Item: Cc1nn(Cc2cccc(F)c2)c(C)c1-c1c[nH]c2ncc(-c3ccc(N4CCN(C[C@H](C)O)CC4)cc3)cc12
92

---

Listed compounds paired with reported inhibition at 0.1 µM
Study system: recombinant human ALK enzyme (ALK WT) (Homo sapiens, UniProt Q9UM73)
Construct: purchased Carna Biosciences 08-518
Assay protocol: ALK WT cell free enzymatic assay (TR-FRET)
Assay type: biochemical
Cond: compound at 100 nM; 30 min pre-incubation; 1 μM ATP
Output spec: scalar in %, unitless text.

Solved entries (count: 2):
Compound	Study system	Unit string	Experimental result
C[C@H](O)CN1CCC(c2ccc(-c3cnc4[nH]cc(-c5cnn(Cc6cccc(F)c6)c5)c4c3)cc2)CC1 [Example 82A]	recombinant human ALK enzyme (ALK WT) (Homo sapiens, UniProt Q9UM73)	%	96
Cc1nn(Cc2cccc(F)c2)c(C)c1-c1c[nH]c2ncc(-c3ccc(N4CCN(CCN(C)C)CC4)cc3)cc12	recombinant human ALK enzyme (ALK WT) (Homo sapiens, UniProt Q9UM73)	%	93

For the next question, use this compound.
Report its inhibition at 0.1 µM with recombinant human ALK enzyme (ALK WT) (Homo sapiens, UniProt Q9UM73) as the test system: CN1CCC(c2ccc(-c3cnc4[nH]cc(-c5cnn(Cc6cccc(F)c6)c5)c4c3)cc2F)CC1
98

---

Study system: recombinant human ALK enzyme (ALK WT) (Homo sapiens)
Construct: purchased Carna Biosciences 08-518
Assay protocol: ALK WT cell free enzymatic assay (TR-FRET)
Assay type: biochemical
Cond: compound at 1 μM; 30 min pre-incubation; 1 μM ATP
Structures can show the parent of a compound that is named as a salt.
Here the recorded inhibition at 1 µM is given for each entry.
All answers are understood in %, so give the number only.

Molecule	Unit string	inhibition at 1 µM
CS(=O)(=O)Nc1cc(-c2cnc3[nH]cc(-c4ccn(Cc5cc(F)cc(F)c5)n4)c3c2)ccc1C1CCNCC1	%	99
COc1cc(-c2cnc3[nH]cc(-c4c(C)nn(Cc5cccc(F)c5)c4C)c3c2)cnc1N	%	100
COc1cc(N2CCNCC2)ccc1-c1cnc2[nH]cc(-c3c(C)nn(Cc4cccc(F)c4)c3C)c2c1 [Example 61, hydrochloride]	%	96

Indicate its recorded inhibition at 1 µM; the molecule in question is C[C@H](O)CN1CCN(c2cnc(-c3cnc4[nH]cc(-c5cnn(Cc6cccc(F)c6)c5)c4c3)cn2)CC1
98

Identify inhibition at 1 µM associated with the molecule Fc1cc(F)cc(Cn2cc(-c3c[nH]c4ncc(-c5ccc(C6CCNCC6)c(F)c5)cc34)cn2)c1
100

Output inhibition at 1 µM of O=C(CC1CC1)N1CCN(c2ccc(-c3cnc4[nH]cc(-c5cnn(Cc6cccc(F)c6)c5)c4c3)cc2)CC1
86

---

Study system: recombinant human ALK enzyme (ALK WT) (Homo sapiens, UniProt Q9UM73)
Construct: purchased Carna Biosciences 08-518
Assay protocol: ALK WT cell free enzymatic assay (TR-FRET)
Assay type: biochemical
Cond: compound at 100 nM; 30 min pre-incubation; 1 μM ATP
Measurement type: inhibition at 0.1 µM (%)
Output spec: scalar in %, unitless text.

Retrieve inhibition at 0.1 µM on recombinant human ALK enzyme (ALK WT) (Homo sapiens, UniProt Q9UM73); query Cc1nn(Cc2cccc(F)c2)c(C)c1-c1c[nH]c2ncc(-c3cccc(CC4CCNCC4)c3)cc12 [Example 99]
89

GET inhibition at 0.1 µM | system: recombinant human ALK enzyme (ALK WT) (Homo sapiens, UniProt Q9UM73) | item: CS(=O)(=O)Nc1cccc(-c2cnc3[nH]cc(-c4cnn(Cc5cccc(C#N)c5)c4)c3c2)c1 [Example 11]
64

Report its inhibition at 0.1 µM with recombinant human ALK enzyme (ALK WT) (Homo sapiens, UniProt Q9UM73) as the test system: Cc1nn(Cc2cc(F)cc(F)c2)c(C)c1-c1c[nH]c2ncc(-c3ccc(F)c(NS(C)(=O)=O)c3)cc12 [Example 80]
65

---

Study system: recombinant human ALK enzyme (ALK WT) (Homo sapiens)
Construct: purchased Carna Biosciences 08-518
Assay protocol: ALK WT cell free enzymatic assay (TR-FRET)
Type: biochemical
Cond: compound at 100 nM; 30 min pre-incubation; 1 μM ATP
Counter-ions that a name gives are not always drawn.
Item-by-item account of inhibition at 0.1 µM
Kindly answer with a numeric value in %, unit omitted.

Molecule	inhibition at 0.1 µM (%)
C[C@H](O)CN1CCN(c2ccc(-c3cnc4[nH]cc(-c5cnn(Cc6cccc(F)c6)c5)c4c3)cc2F)CC1 [Example 114]	92

Using the record for Fc1cc(F)cc(Cn2ccc(-c3c[nH]c4ncc(-c5ccc(N6CCNCC6)cc5)cc34)n2)c1 [Example 111] , state its measured inhibition at 0.1 µM.
82

Read the entry CS(=O)(=O)Nc1cc(-c2cnc3[nH]cc(-c4cnn(CCc5ccccc5)c4)c3c2)ccc1N1CCNCC1 [Example 107, hydrochloride] and write its reported inhibition at 0.1 µM.
99

Specify reported inhibition at 0.1 µM for the molecule shown: NC(=O)N1CCN(c2ccc(-c3cnc4[nH]cc(-c5cnn(Cc6cccc(F)c6)c5)c4c3)cc2)CC1 [Example 108]
97

Please give the documented inhibition at 0.1 µM of CCS(=O)(=O)Nc1cc(-c2cnc3[nH]cc(-c4c(C)nn(Cc5cccc(F)c5)c4C)c3c2)ccc1OC [Example 15]
33

Provide measured inhibition at 0.1 µM value, entry: CNS(=O)(=O)c1cc(-c2cnc3[nH]cc(-c4c(C)nn(Cc5cc(F)cc(F)c5)c4C)c3c2)ccc1OC [Example 21]
82

Give reported inhibition at 0.1 µM value for C[C@H](O)CN1CCN(c2ccc(-c3cnc4[nH]cc(-c5cnn(Cc6ccccc6)c5)c4c3)cc2)CC1 [Example 118]
94
